System: known anti-PSA monoclonal antibodies
experiment-notes: Binding to known anti-PSA monoclonal antibodies (summary)
protocol-conditions: summary statement
assay-endpoint: binding to several known anti-PSA monoclonal antibodies

> print(dat)
                              sequence.text    value.reported
1                  CLLGRHSLFHPEDTGQC [ABT4]  specific binding
2  CWGSIEPEEFLTPKKLC [ABT2, synthetic PSA peptide]  specific binding
3                  CMSLLKNRFLRPGDDSC [ABT6]  specific binding
4  CNRFLRPGDDSSC [ABT1, synthetic PSA peptide; short version of ABT6]  specific binding
